B1: CCDC6 (parent)
chain: FTPPTSLTRAGMSYYNSPGLHVQH

- Variants of: B1
- Assay Remarks: protein stability index of a GFP-peptide fusion (GPS, HEK-293T) (PSI 1-6); higher = more stable;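 also: lentivirally expressed fusions sorted by FACS into six bins by GFP to DsRed ratio, PSI derived from sequencing read proportions per bin multiplied by bin number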
- Run Conditions: c terminus: a fixed tail appended
Parameter: protein stability index. Scope: all listed entries.
Lab note: jot the number down without any unit.

Consider the reported protein stability index for these variants:
T2C ... 1.91
H21F ... 1.61
P4R ... 1.83
L7I ... 1.41
M12F ... 1.58
S17G ... 2
T8Q ... 2.53
P4F ... 1.97
F1P ... 2.82
V22F ... 1.51

Form: variant = `T8F` ; protein stability index = 2.56

Form: variant = `R9M` ; protein stability index = 1.81

Form: variant = `S6R` ; protein stability index = 2.47

Form: variant = `M12Q` ; protein stability index = 1.73

Form: variant = `S13F` ; protein stability index = 2.54

Form: variant = `T5E` ; protein stability index = 2.29

Form: variant = `H24T` ; protein stability index = 1.85

Form: variant = `L7W` ; protein stability index = 2.33

Form: variant = `L7Q` ; protein stability index = 2.38

Form: variant = `A10F` ; protein stability index = 2.33
